Cited source for all entries: patent US20240400614A1

Overview of recorded % cleavage MMP-2 t = 60 min for various sequences
# System under test: MMP-2 (Homo sapiens)
# Construct: purchased SIGMA PF023
# Sequence (P08253 110-660): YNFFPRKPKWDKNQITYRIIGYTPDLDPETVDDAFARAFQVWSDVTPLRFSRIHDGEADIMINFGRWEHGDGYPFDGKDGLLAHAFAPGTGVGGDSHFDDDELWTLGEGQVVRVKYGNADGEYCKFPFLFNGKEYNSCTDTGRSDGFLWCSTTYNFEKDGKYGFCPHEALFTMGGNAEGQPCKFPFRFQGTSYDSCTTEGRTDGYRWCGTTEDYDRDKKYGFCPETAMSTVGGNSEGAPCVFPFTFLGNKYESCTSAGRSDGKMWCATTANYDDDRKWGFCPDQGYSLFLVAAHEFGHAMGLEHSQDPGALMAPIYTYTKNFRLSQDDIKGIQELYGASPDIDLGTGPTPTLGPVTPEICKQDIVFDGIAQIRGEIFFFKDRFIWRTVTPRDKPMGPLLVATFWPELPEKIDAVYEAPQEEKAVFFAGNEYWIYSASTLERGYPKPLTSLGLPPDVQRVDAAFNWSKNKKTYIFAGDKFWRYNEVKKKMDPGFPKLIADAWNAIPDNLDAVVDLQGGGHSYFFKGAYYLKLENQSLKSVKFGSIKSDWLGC
# Assay protocol: FRET peptide cleavage efficiency with MMP-2
# Assay type: biochemical
# Setup conditions: pH 7.5; t = 60 min (Table 7)
Square brackets hold non-standard residues; d marks the D form. Ends that are not written are not given here. Tyr(3-NO2) = N[C@@H](Cc1ccc(O)c([N+](=O)[O-])c1)C(=O)O; 2Abz = Nc1ccccc1C(=O)O
Your answer is read as %, so omit the unit and give the number.

// worked examples, % cleavage MMP-2 t = 60 min included
>  <Sequence text>
SGRVLRKAGPQPLVD ([2Abz]SGRVLRKAGPQPLVD[Tyr(3-NO2)]-NH2) [LNK003]

>  <Observed>
28

$$$$
>  <Sequence text>
SSRGPYMLQG ([2Abz]SSRGPYMLQG[Tyr(3-NO2)]-NH2) [LNK022]

>  <Observed>
84

$$$$
>  <Sequence text>
SSRGRRGPYMLQG ([2Abz]SSRGRRGPYMLQG[Tyr(3-NO2)]-NH2) [LNK021]

>  <Observed>
64

$$$$
>  <Sequence text>
RQRRSPLGLAG ([2Abz]RQRRSPLGLAG[Tyr(3-NO2)]-NH2) [LNK010]

>  <Observed>
100

$$$$
>  <Sequence text>
SGRVANLVG (not fully specified (N-terminus, C-terminus)) [LNK017]

>  <Observed>
100

$$$$
>  <Sequence text>
SGRVAGLVG ([2Abz]SGRVAGLVG[Tyr(3-NO2)]-NH2) [LNK016]

>  <Observed>
100

$$$$

Let us examine a further case.
q: So what's the measured % cleavage MMP-2 t = 60 min for this one? SGRVLRKAGPANLVG ([2Abz]SGRVLRKAGPANLVG[Tyr(3-NO2)]-NH2) [LNK014]
a: 100

====

# System under test: Kallikrein-3 (Homo sapiens, UniProt P07288)
# Sequence (P07288 25-261, species assumed): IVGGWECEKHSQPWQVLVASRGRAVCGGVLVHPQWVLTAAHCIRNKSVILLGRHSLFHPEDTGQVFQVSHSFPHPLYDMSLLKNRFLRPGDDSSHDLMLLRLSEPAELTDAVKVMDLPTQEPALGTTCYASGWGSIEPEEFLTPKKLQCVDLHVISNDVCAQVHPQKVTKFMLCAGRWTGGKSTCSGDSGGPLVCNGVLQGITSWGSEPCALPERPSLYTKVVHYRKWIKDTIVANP
# Assay protocol: FRET peptide cleavage efficiency with Kallikrein-3
# Assay type: biochemical
# Setup conditions: t = 3 h; peptide 200 uM, Kallikrein-3 2 μg/ml, 37° C., pH 8
Square brackets hold non-standard residues; d marks the D form. Ends that are not written are not given here. Tyr(3-NO2) = N[C@@H](Cc1ccc(O)c([N+](=O)[O-])c1)C(=O)O; 2Abz = Nc1ccccc1C(=O)O
Overview of recorded Kallikrein-3 t = 3 h % cleavage for various substances
Your answer is read as %, so omit the unit and give the number.

>  <Substance>
SGRHSSKLQPLGYFGKL ([2Abz]SGRHSSKLQPLGYFGKL[Tyr(3-NO2)]-NH2) [LNK063]

>  <Measure unit>
%

>  <Kallikrein-3 t = 3 h % cleavage>
20

$$$$
>  <Substance>
RGRRHSSKLQ ([2Abz]RGRRHSSKLQ[Tyr(3-NO2)]-NH2) [LNK052]

>  <Measure unit>
%

>  <Kallikrein-3 t = 3 h % cleavage>
31

$$$$

q: So what's the measured Kallikrein-3 t = 3 h % cleavage for this one? SQLYSSPG ([2Abz]SQLYSSPG[Tyr(3-NO2)]-NH2) [LNK068]
a: 70

q: So what's the measured Kallikrein-3 t = 3 h % cleavage for this one? ISQYSSAT ([2Abz]ISQYSSAT[Tyr(3-NO2)]-NH2) [LNK070]
a: 0

q: So what's the measured Kallikrein-3 t = 3 h % cleavage for this one? GSGSGSGS ([2Abz]GSGSGSGS[Tyr(3-NO2)]-NH2) [LNK064]
a: 0

q: So what's the measured Kallikrein-3 t = 3 h % cleavage for this one? RSSYYSL ([2Abz]RSSYYSL[Tyr(3-NO2)]-NH2) [LNK076]
a: 0

====

Overview of recorded % cleavage uPA t = 120 min for various substances
# System under test: uPA (Homo sapiens, UniProt P00749)
# Assay protocol: FRET peptide cleavage efficiency with uPA
# Format: biochemical
# Setup conditions: t = 120 min; standard conditions (Table 8)
Square brackets hold non-standard residues; d marks the D form. Ends that are not written are not given here. Tyr(3-NO2) = N[C@@H](Cc1ccc(O)c([N+](=O)[O-])c1)C(=O)O; Nle = CCCC[C@H](N)C(=O)O; 2Abz = Nc1ccccc1C(=O)O
Your answer is read as %, so omit the unit and give the number.

// worked examples, % cleavage uPA t = 120 min included
>  <Substance>
RGRKSQPLVD ([2Abz]RGRKSQPLVD[Tyr(3-NO2)]-NH2) [LNK041]

>  <System under test>
uPA (Homo sapiens, UniProt P00749)

>  <% cleavage uPA t = 120 min (%)>
0

$$$$
>  <Substance>
RGRKSPANLVG ([2Abz]RGRKSPANLVG[Tyr(3-NO2)]-NH2) [LNK034]

>  <System under test>
uPA (Homo sapiens, UniProt P00749)

>  <% cleavage uPA t = 120 min (%)>
0

$$$$
>  <Substance>
RGRKSPYMLQG ([2Abz]RGRKSPYMLQG[Tyr(3-NO2)]-NH2) [LNK037]

>  <System under test>
uPA (Homo sapiens, UniProt P00749)

>  <% cleavage uPA t = 120 min (%)>
0

$$$$
>  <Substance>
RGRKPY-Nle-LQG ([2Abz]RGRKPY[Nle]LQG[Tyr(3-NO2)]-NH2) [LNK036]

>  <System under test>
uPA (Homo sapiens, UniProt P00749)

>  <% cleavage uPA t = 120 min (%)>
0

$$$$
>  <Substance>
RGRKPQPLVD ([2Abz]RGRKPQPLVD[Tyr(3-NO2)]-NH2) [LNK039]

>  <System under test>
uPA (Homo sapiens, UniProt P00749)

>  <% cleavage uPA t = 120 min (%)>
0

$$$$

q: So what's the measured % cleavage uPA t = 120 min for this one? SGRVAPYMLQG ([2Abz]SGRVAPYMLQG[Tyr(3-NO2)]-NH2) [LNK042]
a: 13

q: So what's the measured % cleavage uPA t = 120 min for this one? SGRVQPLVD (not fully specified (N-terminus, C-terminus)) [LNK047]
a: 2

q: So what's the measured % cleavage uPA t = 120 min for this one? RGRKSPQPLVD ([2Abz]RGRKSPQPLVD[Tyr(3-NO2)]-NH2) [LNK040]
a: 0

====

# System under test: MMP-7 (Homo sapiens)
# Construct: purchased SIGMA CC1059
# Sequence (P09237 95-267): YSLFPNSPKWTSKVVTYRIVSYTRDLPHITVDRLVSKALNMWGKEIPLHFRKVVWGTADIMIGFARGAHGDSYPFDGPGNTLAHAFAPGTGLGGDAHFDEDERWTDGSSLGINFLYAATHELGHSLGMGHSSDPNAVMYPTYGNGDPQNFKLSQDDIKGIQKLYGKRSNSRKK
# Assay protocol: FRET peptide cleavage efficiency with MMP-7 (standard pH 7.5; also pH 6.5)
# Format: biochemical
# Setup conditions: t = 120 min; standard conditions (Table 8)
Square brackets hold non-standard residues; d marks the D form. Ends that are not written are not given here. Tyr(3-NO2) = N[C@@H](Cc1ccc(O)c([N+](=O)[O-])c1)C(=O)O; Nle = CCCC[C@H](N)C(=O)O; 2Abz = Nc1ccccc1C(=O)O
Assay metric: % cleavage MMP-7 t = 120 min (%)
Your answer is read as %, so omit the unit and give the number.

>  <Substance>
RGRRVANLVG ([2Abz]RGRRVANLVG[Tyr(3-NO2)]-NH2) [LNK033]

>  <System under test>
MMP-7 (Homo sapiens)

>  <Observed>
98

$$$$

q: So what's the measured % cleavage MMP-7 t = 120 min for this one? RQRKVANLVG ([2Abz]RQRKVANLVG[Tyr(3-NO2)]-NH2) [LNK032]
a: 95

q: So what's the measured % cleavage MMP-7 t = 120 min for this one? SGRVAPY-Nle-LQG ([2Abz]SGRVAPY[Nle]LQG[Tyr(3-NO2)]-NH2) [LNK043]
a: 100
